Measured aptazyme ON/OFF ratio, listed per entry for reference.
B1: Pistol ribozyme (parent)
chain: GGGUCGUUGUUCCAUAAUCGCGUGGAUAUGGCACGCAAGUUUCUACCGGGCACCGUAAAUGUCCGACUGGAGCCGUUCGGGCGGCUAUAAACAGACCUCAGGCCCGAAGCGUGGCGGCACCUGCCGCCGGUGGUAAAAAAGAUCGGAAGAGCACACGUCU

- Variants of: B1
- PROTOCOL DETAILS: aptazyme ON/OFF ratio, guanine; higher = stronger switching; co-transcriptional cleavage with and without guanine
The answer should be written as a number, with no unit following it.

Reference set (2 entries):
U7A U8C G9C U10A C12A; 1.09
U7G U8G G9C U11C C13G; 1.4

Could you tell me which aptazyme ON/OFF ratio is on file for U8G G9U U10G U11A C12G C13A ? 1.05

Requested read-out: aptazyme ON/OFF ratio. Entry: U7G U8C G9A U11G C12U C13G 1.07

Given the entry U8A U10G U11A C13U , report its measured aptazyme ON/OFF ratio. 1.13

What measured aptazyme ON/OFF ratio goes with U7G U8A G9U U10A U11A C13G ? 1.02

Param item = U7G U8A U10G C12G C13A ; retrieve measured aptazyme ON/OFF ratio. 1.25

GET /values?readout=aptazyme ON/OFF ratio&item= U8G U11A C12U C13U 1.33
